# Target under test: Urease (Canavalia ensiformis, UniProt P07374)
# Sequence (P07374 whole entry): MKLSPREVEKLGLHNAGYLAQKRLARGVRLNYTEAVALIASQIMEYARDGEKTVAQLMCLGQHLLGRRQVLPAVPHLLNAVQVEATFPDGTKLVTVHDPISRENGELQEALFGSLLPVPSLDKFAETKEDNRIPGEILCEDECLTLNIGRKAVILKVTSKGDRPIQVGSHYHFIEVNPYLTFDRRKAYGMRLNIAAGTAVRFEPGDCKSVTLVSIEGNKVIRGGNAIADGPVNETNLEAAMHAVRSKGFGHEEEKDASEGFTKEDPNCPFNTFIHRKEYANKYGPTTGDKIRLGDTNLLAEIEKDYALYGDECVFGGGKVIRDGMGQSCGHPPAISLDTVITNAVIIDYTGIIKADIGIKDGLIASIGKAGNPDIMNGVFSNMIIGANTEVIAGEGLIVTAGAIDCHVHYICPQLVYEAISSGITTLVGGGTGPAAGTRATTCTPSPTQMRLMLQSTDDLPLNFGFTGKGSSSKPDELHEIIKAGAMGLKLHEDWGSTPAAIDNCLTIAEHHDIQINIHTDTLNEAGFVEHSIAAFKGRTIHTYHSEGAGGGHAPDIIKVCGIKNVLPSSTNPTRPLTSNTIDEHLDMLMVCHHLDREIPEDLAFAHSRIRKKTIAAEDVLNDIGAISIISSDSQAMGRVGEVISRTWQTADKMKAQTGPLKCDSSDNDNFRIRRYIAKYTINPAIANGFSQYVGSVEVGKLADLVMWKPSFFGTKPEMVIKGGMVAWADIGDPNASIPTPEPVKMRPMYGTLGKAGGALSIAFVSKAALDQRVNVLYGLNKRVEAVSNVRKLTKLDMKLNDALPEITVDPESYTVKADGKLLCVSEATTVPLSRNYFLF
# Assay overview: Inhibition of Canavalia ensiformis (jack bean) urease assessed as inhibition of ammonia production after 15 min by indophenol method
# Measurement parameters: read-out: IC50
Exam item: assign fulfilled to entries whose IC50 is below 50 µM and not fulfilled to entries at or above 50 µM. Note that a value of exactly 50 µM receives not fulfilled.

Please review the following examples before continuing.
{"columns": ["Compound", "Class name"],
 "data": [
  ["O=C1Nc2ccc(F)cc2/C1=N/NC(=S)Nc1cc(F)cc(F)c1", "not fulfilled"],
  ["O=C1Nc2ccc(F)cc2/C1=N/NC(=S)Nc1c(F)cccc1F", "fulfilled"]
]}

Record O=C1Nc2ccccc2/C1=N/NC(=S)Nc1c(F)cccc1F : is its IC50 strictly below 50 µM?
fulfilled

* * *

# Target under test: Urease (Canavalia ensiformis) (UniProt P07374)
# Sequence (P07374 whole entry, looked up): as the sequence (P07374 whole entry) above
# Assay overview: Inhibition of Canavalia ensiformis (jack bean) urease assessed as inhibition of ammonia production at 100 uM after 15 min by indophenol method
Use 60% as the dividing line for inhibition, with the line itself on the class 1 side and lower values as class 0.

Please review the following examples before continuing.
{"columns": ["Compound", "Class name"],
 "data": [
  ["O=C1Nc2ccccc2/C1=N/NC(=S)Nc1ccccc1F", "class 1"],
  ["O=C1Nc2ccccc2/C1=N/NC(=S)Nc1cc(F)cc(F)c1", "class 0"],
  ["O=C1Nc2ccccc2/C1=N/NC(=S)Nc1c(F)cccc1F", "class 1"],
  ["O=C1Nc2ccccc2/C1=N/NC(=S)Nc1cccc(C(F)(F)F)c1", "class 1"],
  ["O=C1Nc2ccccc2/C1=N/NC(=S)Nc1ccc(C(F)(F)F)cc1", "class 0"]
]}

Hello, I need to know if O=C1Nc2ccccc2/C1=N/NC(=S)Nc1ccc(OC(F)(F)F)cc1 has measured inhibition not below 60%. Thanks!
class 0

Hello, I need to know if O=C1Nc2ccccc2/C1=N/NC(=S)Nc1ccccc1C(F)(F)F has measured inhibition not below 60%. Thanks!
class 1

Hello, I need to know if O=C1Nc2ccccc2/C1=N/NC(=S)Nc1ccc(F)cc1F has measured inhibition not below 60%. Thanks!
class 1

Hello, I need to know if O=C1Nc2ccccc2/C1=N/NC(=S)Nc1cccc(F)c1 has measured inhibition not below 60%. Thanks!
class 0

* * *

# Target under test: Urease (Canavalia ensiformis) (UniProt P07374)
# Assay overview: Inhibition of Canavalia ensiformis (jack bean) urease assessed as inhibition of ammonia production at 500 uM after 15 min by indophenol method
Use 90% as the dividing line for inhibition, with the line itself on the condition met side and lower values as condition not met.

Please review the following examples before continuing.
{"columns": ["Compound", "Class name"],
 "data": [
  ["O=C1Nc2ccc(F)cc2/C1=N/NC(=S)Nc1ccc(F)cc1", "condition not met"],
  ["NC(N)=S", "condition met"]
]}

Hello, I need to know if O=C1Nc2ccc(F)cc2/C1=N/NC(=S)Nc1c(F)cccc1F has measured inhibition not below 90%. Thanks!
condition not met

Hello, I need to know if O=C1Nc2ccc(F)cc2/C1=N/NC(=S)Nc1ccccc1F has measured inhibition not below 90%. Thanks!
condition met

Hello, I need to know if O=C1Nc2ccc(F)cc2/C1=N/NC(=S)Nc1cc(F)cc(F)c1 has measured inhibition not below 90%. Thanks!
condition not met
